Overview of recorded IC50 for various compounds
- Target Entity: NaV 1.8 channel (Homo sapiens, UniProt Q9Y5Y9)
- Sequence (Q9Y5Y9 whole entry): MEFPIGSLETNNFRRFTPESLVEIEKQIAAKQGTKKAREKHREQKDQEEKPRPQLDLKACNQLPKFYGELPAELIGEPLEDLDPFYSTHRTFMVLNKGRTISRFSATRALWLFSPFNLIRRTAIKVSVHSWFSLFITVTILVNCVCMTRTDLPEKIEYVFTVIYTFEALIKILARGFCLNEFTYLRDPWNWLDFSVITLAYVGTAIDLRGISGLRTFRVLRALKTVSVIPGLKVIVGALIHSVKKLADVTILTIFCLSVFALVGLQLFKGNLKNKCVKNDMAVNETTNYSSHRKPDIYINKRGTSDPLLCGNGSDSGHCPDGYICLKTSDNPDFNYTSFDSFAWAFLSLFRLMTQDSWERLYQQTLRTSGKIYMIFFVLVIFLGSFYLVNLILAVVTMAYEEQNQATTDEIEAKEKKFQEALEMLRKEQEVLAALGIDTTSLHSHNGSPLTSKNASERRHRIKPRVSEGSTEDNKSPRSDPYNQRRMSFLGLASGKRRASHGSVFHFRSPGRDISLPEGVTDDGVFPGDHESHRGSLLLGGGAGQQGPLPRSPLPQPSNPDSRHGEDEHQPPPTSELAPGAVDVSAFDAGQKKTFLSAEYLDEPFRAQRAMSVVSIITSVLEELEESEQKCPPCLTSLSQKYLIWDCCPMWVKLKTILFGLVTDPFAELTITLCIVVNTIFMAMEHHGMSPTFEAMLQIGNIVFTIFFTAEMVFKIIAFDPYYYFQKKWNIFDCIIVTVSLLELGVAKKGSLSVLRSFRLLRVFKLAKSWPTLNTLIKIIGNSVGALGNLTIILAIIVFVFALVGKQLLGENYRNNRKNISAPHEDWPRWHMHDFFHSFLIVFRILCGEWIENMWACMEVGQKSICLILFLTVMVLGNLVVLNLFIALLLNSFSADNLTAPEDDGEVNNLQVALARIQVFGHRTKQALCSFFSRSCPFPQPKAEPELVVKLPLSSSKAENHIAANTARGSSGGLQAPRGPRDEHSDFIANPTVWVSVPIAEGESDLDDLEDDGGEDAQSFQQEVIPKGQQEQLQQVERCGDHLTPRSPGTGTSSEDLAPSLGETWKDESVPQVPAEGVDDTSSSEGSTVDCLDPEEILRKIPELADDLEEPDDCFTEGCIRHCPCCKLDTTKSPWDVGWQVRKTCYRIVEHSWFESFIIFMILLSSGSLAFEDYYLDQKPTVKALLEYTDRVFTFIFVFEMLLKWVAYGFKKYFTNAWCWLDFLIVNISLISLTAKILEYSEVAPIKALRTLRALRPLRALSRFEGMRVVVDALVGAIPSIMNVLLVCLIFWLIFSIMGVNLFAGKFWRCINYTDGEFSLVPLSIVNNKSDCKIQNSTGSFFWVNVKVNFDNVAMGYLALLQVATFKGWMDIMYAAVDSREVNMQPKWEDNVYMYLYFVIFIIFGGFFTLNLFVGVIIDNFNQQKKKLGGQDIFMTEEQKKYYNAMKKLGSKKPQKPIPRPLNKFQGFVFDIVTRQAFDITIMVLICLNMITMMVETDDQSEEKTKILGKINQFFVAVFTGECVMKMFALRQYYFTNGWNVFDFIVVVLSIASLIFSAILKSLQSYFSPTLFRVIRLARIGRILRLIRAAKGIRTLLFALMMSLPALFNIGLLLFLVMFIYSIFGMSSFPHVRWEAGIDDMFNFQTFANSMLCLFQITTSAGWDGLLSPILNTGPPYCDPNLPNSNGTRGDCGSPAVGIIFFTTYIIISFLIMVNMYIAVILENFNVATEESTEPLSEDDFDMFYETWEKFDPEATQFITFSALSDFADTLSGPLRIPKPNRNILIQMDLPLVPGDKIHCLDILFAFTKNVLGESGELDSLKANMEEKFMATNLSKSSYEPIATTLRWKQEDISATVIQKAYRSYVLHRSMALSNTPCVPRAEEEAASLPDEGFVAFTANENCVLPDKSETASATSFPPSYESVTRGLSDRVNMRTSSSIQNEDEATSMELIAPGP
- Experiment: Activity against NaV 1.8 channel (optical membrane potential assay)
- Method: Compounds of the invention are useful as antagonists of voltage-gated sodium ion channels. Antagonist properties of test compounds were assessed as follows. Cells expressing the NaV of interest were placed into microtiter plates. […] The cells were stimulated with either a chemical or electrical means to evoke a NaV dependent membrane potential change from unblocked channels, which was detected and measured with trans-membrane potential-sensitive dyes. […]

Compound: Cc1ccc2c(N3CCC[C@@H](NC(=O)[C@H]4CCCO4)C3)nc(-c3ccccc3O)nc2c1
Quantity: IC50
Result: 2 to 10 µM
--
Compound: Cc1ccc2c(N3CCC[C@H](CNC(=O)O[C@H]4CCOC4)C3)nc(-c3ccccc3O)nc2c1
Quantity: IC50
Result: > 10 µM
--
Compound: Cc1ccc2c(N3CCC(NC(=O)[C@@H]4CCCO4)CC3)nc(-c3ccccc3O)nc2c1
Quantity: IC50
Result: 2 to 10 µM
--
Compound: Cc1ccc2c(N3CCC[C@@H](CNC(=O)O[C@H]4CCOC4)C3)nc(-c3c(O)cccc3F)nc2c1
Quantity: IC50
Result: 2 to 10 µM
--
Compound: CCC(C)(O)C(=O)N1CCN(c2nc(-c3ccccc3O)nc3ccccc23)CC1 (centres unmarked)
Quantity: IC50
Result: > 10 µM

Fill in: IC50 of C#CC(O)C(=O)N1CCN(c2nc(-c3ccccc3O)nc3cc(C)ccc23)CC1 (centres unmarked) is ___
> 10 µM

Now the same for Cc1ccc2c(N3CC[C@H](CNC(=O)[C@H]4CCCO4)C3)nc(-c3ccccc3O)nc2c1
> 10 µM

Now the same for O=C(N[C@@H]1CCN(c2nc(-c3ccccc3O)nc3ccc(F)cc23)C1)c1ccncc1
> 10 µM

* * *

- Target Entity: NaV 1.8 channel (Homo sapiens)
- Experiment: Activity against NaV 1.8 channel (optical membrane potential assay)
Overview of recorded IC50 for various molecules

Molecule: Cc1ccc2c(N3CCC(NC(=O)C(O)C(C)C)CC3)nc(-c3ccccc3O)nc2c1 (stereo not shown)
IC50: > 10 µM

Now turn to the next molecule.
Fill in: IC50 of Cc1ccc2c(N3CCN(C(=O)C(O)c4ccc(F)cc4)CC3)nc(-c3ccccc3O)nc2c1 (stereo not shown) is ___
> 10 µM

* * *

- Target Entity: NaV 1.8 channel (Homo sapiens, UniProt Q9Y5Y9)
- Experiment: Activity against NaV 1.8 channel (optical membrane potential assay)
Overview of recorded IC50 for various compounds

Fill in: IC50 of Cc1ccc2c(N3CCN(C(=O)C(C)(O)C(F)(F)F)CC3)nc(-c3ccccc3O)nc2c1 (stereo not shown) is ___
> 10 µM

Now the same for Cc1ccc2c(N3CCN(C(=O)[C@H](O)CC(=O)N(C)C)CC3)nc(-c3ccccc3O)nc2c1
> 10 µM

Now the same for Cc1ccc2c(N3CC[C@@H](NC(=O)c4ccccn4)C3)nc(-c3ccccc3O)nc2c1
2 to 10 µM

Now the same for O=C(C1CC1)N1CCN(c2nc(-c3ccccc3O)nc3ccc(F)cc23)CC1
2 to 10 µM

Now the same for Cc1ccc2c(N3CC[C@@H](NC(=O)OCC4CCCCO4)C3)nc(-c3ccccc3O)nc2c1 (stereo partly shown)
2 to 10 µM

Now the same for Cc1ccc2c(N3CCC[C@H](CNC(=O)OCC(C)C)C3)nc(-c3ccccc3O)nc2c1
> 10 µM

Now the same for CCCCC(O)C(=O)NC1CCN(c2nc(-c3ccccc3O)nc3cc(C)ccc23)CC1 (stereo not shown)
> 10 µM

Now the same for Cc1ccc2c(N3CC[C@@H](NC(=O)C(O)c4ccc(F)cc4)C3)nc(-c3c(O)cccc3F)nc2c1 (stereo partly shown)
> 10 µM
